Biological target: mTOR (Homo sapiens, UniProt P42345)
Construct: FLAG; made in house
Sequence (P42345 1362-2549): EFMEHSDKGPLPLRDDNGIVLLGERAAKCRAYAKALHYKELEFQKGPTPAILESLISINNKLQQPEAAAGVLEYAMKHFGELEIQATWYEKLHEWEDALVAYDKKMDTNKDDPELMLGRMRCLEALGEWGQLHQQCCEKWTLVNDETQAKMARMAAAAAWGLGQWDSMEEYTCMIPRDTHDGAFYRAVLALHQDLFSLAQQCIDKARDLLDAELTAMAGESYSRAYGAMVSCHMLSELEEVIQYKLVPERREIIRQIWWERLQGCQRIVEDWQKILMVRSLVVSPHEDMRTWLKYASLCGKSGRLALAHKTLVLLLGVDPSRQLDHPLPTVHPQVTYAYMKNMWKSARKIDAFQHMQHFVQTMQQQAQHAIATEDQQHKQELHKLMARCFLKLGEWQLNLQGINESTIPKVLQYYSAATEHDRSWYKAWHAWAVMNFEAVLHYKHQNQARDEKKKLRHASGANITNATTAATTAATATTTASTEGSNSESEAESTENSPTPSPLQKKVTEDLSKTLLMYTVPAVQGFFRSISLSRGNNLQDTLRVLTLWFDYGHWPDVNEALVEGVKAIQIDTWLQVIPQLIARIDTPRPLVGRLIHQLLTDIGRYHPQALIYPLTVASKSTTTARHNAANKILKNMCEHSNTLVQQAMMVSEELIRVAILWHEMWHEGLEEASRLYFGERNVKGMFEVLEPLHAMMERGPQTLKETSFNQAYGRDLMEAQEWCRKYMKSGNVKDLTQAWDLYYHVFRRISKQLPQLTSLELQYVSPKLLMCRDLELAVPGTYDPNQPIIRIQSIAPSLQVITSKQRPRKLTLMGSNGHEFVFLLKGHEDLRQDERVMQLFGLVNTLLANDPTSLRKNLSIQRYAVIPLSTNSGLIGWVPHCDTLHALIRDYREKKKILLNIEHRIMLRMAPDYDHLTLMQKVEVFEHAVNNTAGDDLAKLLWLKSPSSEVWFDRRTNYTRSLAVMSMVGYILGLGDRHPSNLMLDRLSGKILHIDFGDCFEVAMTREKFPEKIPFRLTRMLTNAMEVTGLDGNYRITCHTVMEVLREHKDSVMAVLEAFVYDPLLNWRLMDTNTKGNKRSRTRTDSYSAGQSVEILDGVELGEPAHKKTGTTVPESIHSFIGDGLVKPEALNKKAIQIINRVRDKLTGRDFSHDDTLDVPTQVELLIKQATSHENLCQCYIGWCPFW
Assay: In Vitro mTOR Kinase Assay (Echo), Test (a)(ii)
Type: biochemical
Conditions: table of enzyme assay Test (a)(ii); read-out: Test (a)(ii) IC50
From the text: (a)(ii) In Vitro mTOR Kinase Assay (Echo) The assay used AlphaScreen technology (Gray et al., Analytical Biochemistry, 2003, 313: 234-245) to determine the ability of test compounds to inhibit phosphorylation by recombinant mTOR. A C-terminal truncation of mTOR encompassing amino acid residues 1362 to 2549 of mTOR (EMBL Accession No. L34075) was stably expressed as a FLAG-tagged fusion in HEK293 cells as described by Vilella-Bach et al., Journal of Biochemistry, 1999, 274, 4266-4272. […]
reported property: IC50 (nM)

The following compounds have reported results that may help.
1) C[C@H](CO)NC(=O)Nc1ccc(-c2nc(N3CCOC[C@@H]3C)cc(C3(S(=O)(=O)CCCO)CCC3)n2)cc1 [Example 43r] : 57.7
2) CCS(=O)(=O)C1(c2cc(N3CCOC[C@@H]3C)nc(-c3ccc(NC(=S)NCc4ncc[nH]4)cc3)n2)CCC1 [Example 88b] : 56.7
3) C[C@H]1COCCN1c1cc(C2(S(=O)(=O)C(C)(C)C)CC2)nc(-c2ccc(NC(=O)NC3CC3)cc2)n1 : 1.35

(A) C[C@H]1COCCN1c1cc(C2(S(=O)(=O)C(C)(C)C)CC2)nc(-c2ccc(NC(=O)Nc3ccccn3)cc2)n1 [Example 18b]
(B) C[C@H]1COCCN1c1cc(C2(S(=O)(=O)c3ccc(Cl)cc3)CC2)nc(-c2ccc(NC(=O)NC3CC3)cc2)n1
*Q* Which item exceeds the other in IC50, A or B ? Selection: enter the item's label.
*A* A

* * *

molecular target: mTOR (Homo sapiens); construct: FLAG; made in house; assay: In Vitro mTOR Kinase Assay (Echo), Test (a)(ii); type: biochemical; conditions: table of enzyme assay Test (a)(ii); read-out: Test (a)(ii) IC50
reported property: IC50 (nM)

Consider the following illustrative entries.
1. C[C@H]1COCCN1c1cc(C2(S(=O)(=O)C3CCOCC3)CC2)nc(-c2ccc(NC(=O)NC3CC3)cc2)n1 [Example 94c] : 11.8
2. Cc1csc(S(=O)(=O)C2(c3cc(N4CCOC[C@@H]4C)nc(-c4ccc(NC(=O)NCc5ncc[nH]5)cc4)n3)CCC2)n1 [Example 98c] : 26.7

(1) CNC(=O)Nc1ncc(-c2nc(N3CCOC[C@@H]3C)cc(C3(S(C)(=O)=O)CCCC3)n2)cn1 [Example 14t]
(2) CCNC(=O)Nc1ccc(-c2nc(N3CCOC[C@@H]3C)cc(C3(S(=O)(=O)c4ccc(C(N)=O)cc4Cl)CC3)n2)cc1 [Example 85a]
*Q* So which one has the bigger IC50 here, 1 or 2 ? Respond with the label that goes with your answer.
*A* 1
(1: 197 nM, 2: 3.13 nM)

(a) CNC(=O)Nc1ncc(-c2nc(N3CCOC[C@@H]3C)cc(C3(S(=O)(=O)c4ccc(F)cc4)CC3)n2)cn1 [Example 14f]
(b) C[C@H]1COCCN1c1cc(C2(S(=O)(=O)c3ccccc3)CCC2)nc(-c2ccc(NC(=O)NCc3ncc[nH]3)cc2)n1 [Example 36du]
(c) C[C@H]1COCCN1c1cc(C2(S(=O)(=O)C3CC3)CCC2)nc(-c2ccc(NC(=O)NCCCO)cc2)n1 [Example 64z]
(d) C[C@H]1COCCN1c1cc(C2(S(=O)(=O)c3ccccc3)CCC2)nc(-c2ccc(NC(=O)NC(C)(C)CO)cc2)n1 [Example 64o]
*Q* List from greatest to least IC50. Answer with the labels in sequence, matching the requested order.
*A* a, b, c, d

* * *

target: mTOR (Homo sapiens); construct: FLAG; made in house; experiment: In Vitro mTOR Kinase Assay (Echo), Test (a)(ii); assay type: biochemical; conditions: table of enzyme assay Test (a)(ii); read-out: Test (a)(ii) IC50
pIC50: −log10 of the molar value.
reported property: pIC50

Use the examples below as a reference point.
1. C[C@H]1COCCN1c1cc(C2(S(=O)(=O)c3ccccc3Cl)CC2)nc(-c2ccc(NC(=O)NC3CC3)cc2)n1 [Example 76] : 8.16
2. C[C@H](CO)NC(=O)Nc1ccc(-c2nc(N3CCOC[C@@H]3C)cc(C3(S(=O)(=O)c4ccccc4)CC3)n2)cc1 [Example 36ed] : 8.15
3. C[C@H]1COCCN1c1cc(C2(S(=O)(=O)CCO)CC2)nc(-c2ccc(NC(=O)NC3CCC3)cc2)n1 [Example 16a] : 8.00

(a) Cc1csc(S(=O)(=O)C2(c3cc(N4CCOC[C@@H]4C)nc(-c4ccc(NC(=O)N[C@@H](C)CO)cc4)n3)CCC2)n1 [Example 98b]
(b) C[C@H]1COCCN1c1cc(C2(S(=O)(=O)c3ccccc3)CC2)nc(-c2ccc(NC(=S)NC(C)(C)CO)cc2)n1 [Example 37ag]
(c) C[C@H]1COCCN1c1cc(C2(S(=O)(=O)c3cccc(F)c3)CC2)nc(-c2ccc(NC(=O)NCCO)cc2)n1 [Example 53b]
(d) C[C@H]1COCCN1c1cc(C2(S(=O)(=O)c3ccccn3)CCC2)nc(-c2ccc(NC(=O)NCCO)cc2)n1 [Example 36ah]
*Q* Provide the items ranked by increasing pIC50. Answer by naming the labels in the order asked.
*A* b, a, d, c

(1) C[C@H]1COCCN1c1cc(C2(S(=O)(=O)CCCO)CC2)nc(-c2ccc(NC(=S)NCCO)cc2)n1 [Example 37i]
(2) C[C@H]1COCCN1c1cc(C2(S(=O)(=O)c3nccs3)CCC2)nc(-c2ccc(NC(=O)NC(C)(C)CO)cc2)n1 [Example 98g]
*Q* Pick one, 1 or 2 : lowest reported pIC50. Kindly give the label for the entry you pick.
*A* 2
(2: 7.90, 1: 8.42)

(a) COc1ccc(NC(=O)Nc2ccc(-c3nc(N4CCOC[C@@H]4C)cc(C4(S(C)(=O)=O)CC4)n3)cc2)cc1 [Example 2t]
(b) CCCNC(=S)Nc1ccc(-c2nc(N3CCOC[C@@H]3C)cc(C3(S(=O)(=O)CCCO)CCC3)n2)cc1 [Example 99h]
(c) CC(C)NC(=O)Nc1ccc(-c2nc(N3CCOC[C@@H]3C)cc(C3(S(=O)(=O)c4ccccc4)CC3)n2)cc1 [Example 36bf]
(d) CC[C@H]1COCCN1c1cc(C2(S(C)(=O)=O)CC2)nc(-c2ccc(NC(=O)NCC(F)F)cc2)n1 [Example 84d]
(e) C[C@H]1COCCN1c1cc(C2(S(=O)(=O)c3ccc(F)c(F)c3)CC2)nc(-c2ccc(NC(=O)NCC(F)F)cc2)n1 [Example 64m]
*Q* hey, can you rank those compounds up there by pIC50? biggest number first please List the labels, following the order given in the request.
*A* a, c, d, e, b
(a: 9.18, c: 8.34, d: 8.02, e: 7.39, b: 7.11)

* * *

molecular target: mTOR (Homo sapiens); construct: FLAG; made in house; assay: In Vitro mTOR Kinase Assay (Echo), Test (a)(ii); format: biochemical; settings: table of enzyme assay Test (a)(ii); read-out: Test (a)(ii) IC50
reported property: IC50 (nM)

Consider the worked cases shown below.
1. C[C@H]1COCCN1c1cc(C2(S(C)(=O)=O)CC2)nc(-c2ccc(NC(=S)NCCCO)cc2)n1 [Example 37m] : 50.6
2. CNC(=O)Nc1ccc(-c2nc(N3CCOC[C@@H]3C)cc(C3(S(=O)(=O)c4ccc(Cl)cc4)CCOCC3)n2)cc1 [Example 23j] : 31.4
3. CCNC(=O)Nc1ccc(-c2nc(N3CCOC[C@@H]3C)cc(C3(S(C)(=O)=O)CC3)n2)cc1F [Example 52b] : 30.7
4. C[C@H]1COCCN1c1cc(C2(S(=O)(=O)c3ccccc3)CCCC2)nc(-c2ccc(NC(=O)NCCCO)cc2)n1 [Example 36by] : 12
5. CCNC(=O)Nc1ccc(-c2nc(N3CCOC[C@@H]3C)cc(C3(S(=O)(=O)c4ccc(OC(F)F)cc4)CC3)n2)cc1 [Example 64b] : 6.78
6. C[C@H]1COCCN1c1cc(C2(S(=O)(=O)CCCO)CCC2)nc(-c2ccc(NC(=O)NCCO)cc2)n1 [Example 43b] : 7.51
7. C[C@H]1COCCN1c1cc(C2(S(=O)(=O)CCCO)CCOCC2)nc(-c2ccc(NC(=O)Nc3nccs3)cc2)n1 [Example 36ci] : 38.6
8. CCNC(=O)Nc1ccc(-c2nc(N3CCOC[C@@H]3C)cc(C3(S(=O)(=O)c4cc(F)ccc4C)CC3)n2)cc1 [Example 61e] : 23.7

(1) Cc1nn(C)cc1S(=O)(=O)C1(c2cc(N3CCOC[C@@H]3C)nc(-c3ccc(NC(=O)NCCO)cc3)n2)CC1 [Example 55b]
(2) C[C@H]1COCCN1c1cc(C2(S(=O)(=O)C3CC3)CCNCC2)nc(-c2ccc(NC(=O)NC3CC3)cc2)n1 [Example 21]
*Q* I'd appreciate it if you could identify which of 1 and 2 has the greater IC50. Pick one and reply with its label.
*A* 2
(2: 25.3 nM, 1: 16.1 nM)

(P) CCNC(=O)Nc1ccc(-c2nc(N3CCOCC3C(=O)N(C)C)cc(C3(S(=O)(=O)c4ccccc4)CC3)n2)cc1 (stereo not drawn) [Example 90]
(Q) Cc1csc(S(=O)(=O)C2(c3cc(N4CCOC[C@@H]4C)nc(-c4ccc(NC(=O)NC(C)(C)CO)cc4)n3)CC2)n1 [Example 25k]
(R) C[C@@H](CO)NC(=S)Nc1ccc(-c2nc(N3CCOC[C@@H]3C)cc(C3(S(C)(=O)=O)CCC3)n2)cc1 [Example 62b]
(S) CNC(=O)Nc1ccc(-c2nc(N3CCOC[C@@H]3C)cc(C3(S(=O)(=O)c4ccccn4)CCC3)n2)cc1 [Example 36ag]
(T) C[C@H]1COCCN1c1cc(C2(S(=O)(=O)C3CCOC3)CC2)nc(-c2ccc(NC(=O)NC3CC3)cc2)n1 (stereo partly drawn) [Example 94i]
*Q* Which order do these items take when sorted by rising IC50? List them. Respond with the label ranking, as requested.
*A* S, Q, R, T, P

(A) C[C@H]1COCCN1c1cc(C2(S(=O)(=O)c3cccc(F)c3)CC2)nc(-c2ccc(NC(=O)NC3CC3)cc2)n1 [Example 53a]
(B) C[C@H]1COC[C@H](C)N1c1cc(C2(S(=O)(=O)C3CC3)CC2)nc(-c2ccc(NC(=O)NCCF)cc2)n1 [Example 92e]
(C) CNC(=O)Nc1ccc(-c2nc(N3CCOC[C@@H]3C)cc(C3(S(=O)(=O)c4ccc(F)c(F)c4)CC3)n2)cc1 [Example 64g]
*Q* Sort the 3 compounds by IC50; largest first, smallest last. Reply: labels, ordered per the request.
*A* C, B, A
(C: 34.2 nM, B: 5.99 nM, A: 2.29 nM)
